Target: EGFR L858R/C797S Ba/F3 cells (Homo sapiens, UniProt P00533, C797S/L858R, cells depend on it)
Sequence (P00533 whole entry C797S/L858R): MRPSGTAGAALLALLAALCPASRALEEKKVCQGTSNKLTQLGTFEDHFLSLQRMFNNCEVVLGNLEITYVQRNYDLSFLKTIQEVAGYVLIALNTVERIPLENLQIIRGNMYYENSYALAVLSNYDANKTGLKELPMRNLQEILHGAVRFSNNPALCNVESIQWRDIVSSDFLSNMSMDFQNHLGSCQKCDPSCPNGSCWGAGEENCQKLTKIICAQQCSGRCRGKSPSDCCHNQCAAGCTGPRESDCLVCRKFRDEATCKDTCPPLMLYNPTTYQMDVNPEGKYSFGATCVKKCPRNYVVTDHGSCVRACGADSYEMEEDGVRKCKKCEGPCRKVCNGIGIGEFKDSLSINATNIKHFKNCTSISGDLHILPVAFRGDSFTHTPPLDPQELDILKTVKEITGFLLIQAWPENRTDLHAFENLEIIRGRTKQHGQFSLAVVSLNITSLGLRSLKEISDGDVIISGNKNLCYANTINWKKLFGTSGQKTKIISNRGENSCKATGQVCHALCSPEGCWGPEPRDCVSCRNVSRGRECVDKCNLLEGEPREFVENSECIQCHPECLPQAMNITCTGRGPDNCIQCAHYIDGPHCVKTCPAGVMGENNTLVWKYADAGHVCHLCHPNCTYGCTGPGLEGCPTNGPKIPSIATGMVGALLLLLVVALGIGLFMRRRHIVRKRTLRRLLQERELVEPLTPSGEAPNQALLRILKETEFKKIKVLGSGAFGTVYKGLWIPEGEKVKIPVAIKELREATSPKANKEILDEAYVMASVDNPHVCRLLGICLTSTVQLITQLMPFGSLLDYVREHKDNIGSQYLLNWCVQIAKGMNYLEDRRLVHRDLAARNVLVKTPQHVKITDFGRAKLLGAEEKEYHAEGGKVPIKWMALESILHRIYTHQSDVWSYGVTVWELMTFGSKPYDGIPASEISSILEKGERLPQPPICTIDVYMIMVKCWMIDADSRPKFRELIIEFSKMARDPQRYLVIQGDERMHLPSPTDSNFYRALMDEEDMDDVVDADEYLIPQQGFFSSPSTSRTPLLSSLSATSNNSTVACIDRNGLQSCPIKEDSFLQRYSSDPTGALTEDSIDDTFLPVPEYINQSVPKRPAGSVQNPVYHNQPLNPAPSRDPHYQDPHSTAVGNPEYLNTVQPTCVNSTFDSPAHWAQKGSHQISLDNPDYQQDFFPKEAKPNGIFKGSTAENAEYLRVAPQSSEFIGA
Assay: Ba/F3 cell proliferation (Cell Titer Glo), EGFR L858R/C797S
Format: cell-based, murine
Details: 72 hours exposure, read-out: L858R/C797S (μM), inhibitory activity against EGFR mutants
As shown below, each of these compounds has a reported GI50 value.

INSERT INTO results (compound, measured_value) VALUES
  ('C=C(F)C(=O)NC1CCN(c2cc3cnc(Nc4cnn(CCO)c4)nc3n(C)c2=O)CC1', '≥ 2.5 µM'),
  ('C=CC(=O)N1CCN(c2cc3cnc(NC4CC4)nc3n(C)c2=O)c2cccc(C)c21', '0.5 to 2.5 µM'),
  ('C=CC(=O)N1CCN(c2cc3cnc(Nc4cnn(C5CCN(C)CC5)c4)nc3n(C)c2=O)c2cccc(C)c21', '≤ 0.25 µM'),
  ('C=CC(=O)N1CCN(c2cc3cnc(Nc4ccc(OCCN(C)C)cc4)nc3n(C3CC(O)C3)c2=O)c2cccc(OC)c21 (stereo not shown)', '≤ 0.25 µM'),
  ('C=CC(=O)N1CCN(c2cc3cnc(Nc4ccc(OCCN(C)C)cc4)nc3n(C3COC3)c2=O)c2cccc(C)c21', '0.5 to 2.5 µM');

Returns the measured GI50 for the input compound. Input: C=CC(=O)N1CCN(c2c(F)c3cnc(Nc4ccc(N5CCN(C)CC5)cc4)nc3n(C)c2=O)c2c(F)cc(F)c(C)c21
≤ 0.25 µM

What do you have for C=CC(=O)N1CCN(c2cc3cnc(N)nc3n([C@H]3CC[C@](C)(O)CC3)c2=O)c2cccc(C)c21 ?
≤ 0.25 µM

###

Biological target: EGFR mutant L858R Ba/F3 cells (Homo sapiens, UniProt P00533, L858R, cells depend on it)
Sequence (P00533 whole entry L858R): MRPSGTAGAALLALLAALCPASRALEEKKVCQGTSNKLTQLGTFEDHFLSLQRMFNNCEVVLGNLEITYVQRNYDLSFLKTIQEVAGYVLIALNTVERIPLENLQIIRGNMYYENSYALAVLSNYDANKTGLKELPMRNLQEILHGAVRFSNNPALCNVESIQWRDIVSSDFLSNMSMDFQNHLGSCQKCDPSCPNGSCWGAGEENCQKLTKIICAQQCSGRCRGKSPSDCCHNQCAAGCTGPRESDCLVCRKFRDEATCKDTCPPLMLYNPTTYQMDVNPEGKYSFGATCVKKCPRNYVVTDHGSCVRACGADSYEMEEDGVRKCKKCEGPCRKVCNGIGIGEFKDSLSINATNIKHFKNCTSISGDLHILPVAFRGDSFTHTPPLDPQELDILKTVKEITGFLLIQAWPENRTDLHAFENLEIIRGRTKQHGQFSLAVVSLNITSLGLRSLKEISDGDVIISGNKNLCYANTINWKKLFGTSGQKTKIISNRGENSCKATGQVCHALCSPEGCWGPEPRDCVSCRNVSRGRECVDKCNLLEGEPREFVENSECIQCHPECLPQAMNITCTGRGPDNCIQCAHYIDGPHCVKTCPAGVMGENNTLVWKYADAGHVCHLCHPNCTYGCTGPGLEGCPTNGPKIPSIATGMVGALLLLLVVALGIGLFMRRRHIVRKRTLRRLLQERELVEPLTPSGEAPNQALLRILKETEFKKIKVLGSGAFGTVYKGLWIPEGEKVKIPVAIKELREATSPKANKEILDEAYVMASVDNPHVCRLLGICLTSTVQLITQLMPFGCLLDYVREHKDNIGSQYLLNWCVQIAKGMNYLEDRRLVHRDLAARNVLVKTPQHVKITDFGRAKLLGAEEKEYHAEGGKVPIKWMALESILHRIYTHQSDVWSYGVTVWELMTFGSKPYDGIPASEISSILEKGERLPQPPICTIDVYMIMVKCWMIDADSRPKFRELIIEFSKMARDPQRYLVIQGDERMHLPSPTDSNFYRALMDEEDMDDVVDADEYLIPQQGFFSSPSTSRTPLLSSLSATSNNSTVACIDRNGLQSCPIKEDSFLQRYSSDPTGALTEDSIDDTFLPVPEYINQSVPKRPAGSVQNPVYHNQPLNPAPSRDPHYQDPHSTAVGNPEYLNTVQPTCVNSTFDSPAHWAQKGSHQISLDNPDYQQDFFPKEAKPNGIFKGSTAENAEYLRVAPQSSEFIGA
Assay: Ba/F3 cell proliferation (Cell Titer Glo), EGFR L858R
Type: cell-based, murine
Conditions: 72 hours exposure, read-out: L858R BaF3 (μM), inhibitory activity against EGFR mutants
As shown below, each of these compounds has a reported GI50 value.

INSERT INTO assay_data (compound, measured_value) VALUES
  ('C=CC(=O)N1CCN(c2cc3cnc(NC4CC4)nc3n(CC3CCOC3)c2=O)c2cccc(C)c21 (centres unmarked)', '≤ 0.25 µM'),
  ('C=CC(=O)N1CCN(c2cc3cnc(Nc4ccc(OCCN(C)C)cc4)nc3n(-c3cccnc3)c2=O)c2cccc(C)c21', '≤ 0.25 µM'),
  ('C=CC(=O)N1CCN(c2cc3cnc(Nc4ccc(OCCN(C)C)cc4)nc3n(C)c2=O)c2cccc(C)c21', '≤ 0.25 µM');

Returns the measured GI50 for the input compound. Input: C=CC(=O)N1CCN(c2c(F)c3cnc(Nc4ccc(N5CCN(C)CC5)cc4)nc3n(C)c2=O)c2cccc(C)c21
≤ 0.25 µM

What do you have for C=CC(=O)N1CCN(c2cc3cnc(Nc4cc(OC)ncc4C)nc3n(C)c2=O)c2cccc(C)c21 ?
0.25 to 0.5 µM

What do you have for C=CC(=O)N1CCN(c2cc3cnc(N)nc3n([C@H]3CC[C@@](C)(O)CC3)c2=O)c2cccc(C)c21 ?
≤ 0.25 µM

What do you have for C=CC(=O)N1CCN(c2cc3cnc(Nc4ccc(OCCN(C)C)cc4OC)nc3n(C)c2=O)c2cccc(C)c21 ?
≤ 0.25 µM

What do you have for C=CC(=O)N1CCN(c2cc3cnc(Nc4cnn(CCS(C)(=O)=O)c4)nc3n(C)c2=O)c2cccc(C)c21 ?
≤ 0.25 µM

What do you have for C=CC(=O)N1CCN(c2cc3cnc(Nc4ccc(N5CCN(C)CC5)cc4)nc3n(C3CC(O)C3)c2=O)c2cccc(C)c21 (centres unmarked) ?
≤ 0.25 µM

What do you have for C=CC(=O)N1CCN(c2cc3cnc(N)nc3n([C@H]3CC[C@](C)(O)CC3)c2=O)c2cccc(C)c21 ?
≤ 0.25 µM

What do you have for C=CC(=O)Nc1ccccc1Oc1cc2cnc(Nc3ccc(N4CCN(C)CC4)cc3)nc2n(C)c1=O ?
≤ 0.25 µM

What do you have for C=CC(=O)N1CCN(c2cc3cnc(Nc4ccc(OCCN(C)C)cc4)nc3n(C)c2=O)c2cccc(OC)c21 ?
≤ 0.25 µM

What do you have for C=CC(=O)N1CCN(c2cc3cnc(N)nc3n(-c3cccc(O)c3)c2=O)c2cccc(C)c21 ?
0.25 to 0.5 µM

What do you have for C=CC(=O)N1CCN(c2cc3cnc(N)nc3n(-c3ccc(N4CCN(C)CC4)cc3)c2=O)c2cccc(C)c21 ?
≤ 0.25 µM
